# Tested on: NCI-H1993
# PROTOCOL_SUMMARY: relative viability (nuclei count vs DMSO), 5 days (fraction); higher = more cells survive
# ASSAY_SETUP: first compound 2 µM
MEASURED_METRIC: relative viability
Kindly provide the number alone.

1. Cc1csc(=NC2CCCCC2)n1/N=C/c1ccc(O)c(O)c1O [MIM1] + Nc1ncn([C@H]2C[C@H](O)[C@@H](CO)O2)c(=O)n1 [Decitabine] (partner 2 µM)    0.517
2. Cc1csc(=NC2CCCCC2)n1/N=C/c1ccc(O)c(O)c1O [MIM1] + Cc1nc(NC(=O)N2CCC[C@H]2C(N)=O)sc1-c1ccnc(C(C)(C)C(F)(F)F)c1 [Alpelisib] (partner 2 µM)    0.758

Alright, here's another compound for you.
Data request: Note down relative viability recorded for CN1CCN(CCOc2cc(OC3CCOCC3)c3c(Nc4c(Cl)ccc5c4OCO5)ncnc3c2)CC1 [Saracatinib] + CC(=O)Nc1cccc(-n2c(=O)n(C3CC3)c(=O)c3c(Nc4ccc(I)cc4F)n(C)c(=O)c(C)c32)c1 [Trametinib] (partner 0.02 µM)
Data returned: 0.5
